Target: GGTase-I (Rattus norvegicus, UniProt P53610+Q04631)
Construct: purchased JENA BIOSCIENCE
Assay: In vitro GGTase-I enzyme assay (IC50, kinetics)
Assay type: biochemical
Conditions: Tables 8-15; no unit printed there (Table 7 head: μM unless otherwise specified); read-out: In vitro (GGTase I IC50)
Kindly state IC50 for each of the entries shown.

Inquiry: Which measured IC50 belongs to NC(=O)[C@H](Cc1ccccc1)NC(=O)C1=CC[C@@H](c2cccc(Br)c2)N(S(=O)(=O)c2ccc(Cl)cc2)C1c1cccc(Cl)c1 (stereo partly shown) [P61-D05] , tested on GGTase-I (Rattus norvegicus, UniProt P53610+Q04631)?
Reply text: > 20 µM

Inquiry: Now try CC(C)(C)[C@@H]1C=C(C(=O)N[C@@H](Cc2ccccc2)C(N)=O)[C@H](c2ccc(Br)cc2)N1S(=O)(=O)c1ccccc1Cl [P61-B09] .
Reply text: > 10 µM

Inquiry: Now try Cc1ccccc1S(=O)(=O)N1[C@@H](c2ccc(Cl)cc2)C(C(=O)N[C@@H](Cc2ccccc2)C(N)=O)=C[C@H]1C(C)CC(C)(C)C (stereo partly shown) [P61-C03] .
Reply text: > 10 µM

Inquiry: Now try NC(=O)[C@H](Cc1ccccc1)NC(=O)C1=CC[C@@H](c2cccc(Cl)c2)N(S(=O)(=O)c2ccc(Br)cc2)C1c1cccc(Br)c1 (stereo partly shown) .
Reply text: > 20 µM

###

Kindly state IC50 for each of the entries shown.
Biological target: GGTase-I (Rattus norvegicus, UniProt P53610+Q04631)
Construct: purchased JENA BIOSCIENCE
Assay: In vitro GGTase-I enzyme assay (IC50, kinetics)
Format: biochemical
Conditions: Tables 3, 5, 7; read-out: In vitro (enzyme assay) IC50, GGTase I

Inquiry: Which measured IC50 belongs to Cc1ccccc1S(=O)(=O)N1[C@@H](c2ccc(Cl)cc2)C(C(=O)N[C@@H](Cc2ccccc2)C(N)=O)=C[C@H]1C(C)CC(C)(C)C (stereo partly drawn) [P61-C03] , tested on GGTase-I (Rattus norvegicus, UniProt P53610+Q04631)?
Reply text: > 10 µM

Inquiry: Now try CC(C)C[C@H](NC(=O)C1=CC[C@@H](c2cccc(Cl)c2)N(S(=O)(=O)c2ccc(Br)cc2)[C@H]1c1cccc(Cl)c1)C(N)=O .
Reply text: > 20 µM

Inquiry: Now try COC(=O)[C@H](CC(C)C)NC(=O)C1=CC[C@@H](c2ccc(Cl)cc2)N(S(=O)(=O)c2ccccc2C)[C@H]1c1cccc(Cl)c1 .
Reply text: > 20 µM

###

Kindly state GI50 for each of the entries shown.
System: K562 cells
Assay: K562 cell growth inhibition
Assay type: cell-based, human
Details: Homo sapiens, K562, Tables 8-15; no unit printed there
Hi! Could you send only the number? It should be in µM, unit omitted.

Inquiry: What does the record list as GI50 for Cc1ccccc1S(=O)(=O)N1C(c2cccc(Cl)c2)C(C(=O)N[C@@H](CC(C)C)C(N)=O)=CC[C@H]1c1ccc(Cl)cc1 (stereo partly shown) ?
Reply text: 6.15

Inquiry: Now try CC(C)(C)[C@@H]1C=C(C(=O)N[C@@H](Cc2ccccc2)C(N)=O)[C@H](c2ccc(Cl)c(Cl)c2)N1S(=O)(=O)C(C)(C)C [P61-D11] .
Reply text: 5.9

Inquiry: Now try CC(C)C[C@H](NC(=O)C1=CC[C@@H](c2cccc(Br)c2)N(S(=O)(=O)c2ccc(Cl)cc2)C1c1cccc(Cl)c1)C(N)=O (stereo partly shown) .
Reply text: 7.06

Inquiry: Now try COC(=O)[C@H](Cc1ccccc1)NC(=O)COCC1=C[C@@H](C(C)(C)C)N(S(=O)(=O)c2ccccc2C)[C@H]1c1ccc(Cl)cc1 .
Reply text: 6.01
